Data origin, for the record: paper PMC10716038

MEASURED_ON: T1, THD1 K403E (UniProt P26039 1-405, K403E)
T1 construct: talin-1 (TLN1) head domain, residues 1-405, K403E; source: E. coli (DE3) Rosetta 2, purified (IMAC, SEC); not shown: His10-SUMO, N-terminal, cleaved
MEASUREMENT_NOTES: MST; apparent; THD1 or THD1 mutants titrated to 488–β3-CT in the presence of 30-40 µM KIND2; MST buffer
STUDY_CONDITIONS: both partners purified
No end group written: not given here.
PROPERTY_MEASURED: Kd (µM)

{"columns": ["BINDER", "PROPERTY_MEASURED", "NUMERIC_VALUE"],
 "data": [
  ["{ATTO 488}-KLLITIHDRKEFAKFEEERARAKWDTANNPLYKEATSTFTNITYRGT (peptide, UniProt O54890 741-787, looked up, integrin β3 cytoplasmic tail (β3-CT); source: synthetic peptide (MPIB Core Facility)) [ATTO 488-labeled integrin β3 cytoplasmic tail (488–β3-CT)]", "Kd", 116]
]}
